Where do these numbers come from? They come from ChEMBL document CHEMBL4373711.

Assay: Selectivity index, ratio of IC50 for human A431 cells to MIC>99 for antimycobacterial activity against multi-drug resistant Mycobacterium tuberculosis Praha 1 after 21 days
Assay type: toxicity
Details: read-out: Selectivity Index

structureAsSmiles	selectivity ratio at 504 h
O=[N+]([O-])c1cc(-c2nnc(SCc3ccccc3)n2Cc2ccccc2)cc(C(F)(F)F)c1	> 100

###

Test: Selectivity index, ratio of IC50 for human A431 cells to MIC>99 for antimycobacterial activity against multi-drug resistant Mycobacterium tuberculosis 234/2005 after 21 days
Assay type: toxicity
Settings: read-out: Selectivity Index

structureAsSmiles	selectivity ratio at 504 h
O=[N+]([O-])c1cc(-c2nnc(SCc3ccccc3)n2Cc2ccccc2)cc(C(F)(F)F)c1	> 100

###

Assay: Selectivity index, ratio of IC50 for human HepG2 cells to MIC>99 for antimycobacterial activity against multi-drug resistant Mycobacterium tuberculosis 7357/1998 after 14 days
Type: toxicity
Settings: read-out: Selectivity Index

structureAsSmiles	selectivity ratio at 336 h
O=[N+]([O-])c1cc(-c2nnc(SCc3ccccc3)n2Cc2ccccc2)cc(C(F)(F)F)c1	> 100

###

Assay: Selectivity index, ratio of IC50 for human HepG2 cells to MIC>99 for antimycobacterial activity against multi-drug resistant Mycobacterium tuberculosis 7357/1998 after 21 days
Format: toxicity
Conditions: read-out: Selectivity Index

structureAsSmiles	selectivity ratio at 504 h
O=[N+]([O-])c1cc(-c2nnc(SCc3ccccc3)n2Cc2ccccc2)cc(C(F)(F)F)c1	> 100

###

Assay: Selectivity index, ratio of IC50 for human HepG2 cells to MIC>99 for antimycobacterial activity against multi-drug resistant Mycobacterium tuberculosis Praha 4 after 21 days
Format: toxicity
Conditions: read-out: Selectivity Index

structureAsSmiles	selectivity ratio at 504 h
O=[N+]([O-])c1cc(-c2nnc(SCc3ccccc3)n2Cc2ccccc2)cc(C(F)(F)F)c1	> 100

###

System: Mycobacterium tuberculosis
Assay: Antimycobacterial activity against multi-drug resistant Mycobacterium tuberculosis 8666/2010 after 14 days
Type: functional
Conditions: 8666/2010, 336 h
observedProperty: MIC99 (µM)

structureAsSmiles	quantityUnit	qualifyingSign	experimentalResult
COc1ccc(CSc2nnc(-c3cc([N+](=O)[O-])cc([N+](=O)[O-])c3)n2Cc2ccccc2)cc1	µM	=	0.03
CCCCCCCCSc1nnc(-c2cc([N+](=O)[O-])cc([N+](=O)[O-])c2)n1Cc1ccccc1	µM	=	0.125
CO[C@H]1/C=C/O[C@@]2(C)Oc3c(C)c(O)c4c(O)c(c(/C=N/N5CCN(C)CC5)c(O)c4c3C2=O)NC(=O)/C(C)=C\C=C\[C@H](C)[C@H](O)[C@@H](C)[C@@H](O)[C@@H](C)[C@H](OC(C)=O)[C@@H]1C	µM	>	8

###

Test system: Mycobacterium tuberculosis
Assay: Antimycobacterial activity against multi-drug resistant Mycobacterium tuberculosis 7357/1998 after 14 days
Format: functional
Details: 7357/1998, 336 h
Each entry below carries its recorded MIC99.
observedProperty: MIC99 (µM)

structureAsSmiles	observedProperty	quantityUnit	experimentalResult
Cn1c(SCc2ccc(Cl)cc2)nnc1-c1cc([N+](=O)[O-])cc([N+](=O)[O-])c1	MIC99	µM	0.125
O=[N+]([O-])c1cc(CSc2nnc(C3CCCCC3)n2Cc2ccccc2)cc(C(F)(F)F)c1	MIC99	µM	16
O=[N+]([O-])c1cc(CSc2nnc(-c3ccccc3)n2Cc2ccccc2)cc([N+](=O)[O-])c1	MIC99	µM	4
O=[N+]([O-])c1cc(CSc2nnc(-c3ccc(Br)cc3)n2Cc2ccccc2)cc([N+](=O)[O-])c1	MIC99	µM	4

###

Assay: Selectivity index, ratio of IC50 for human HepG2 cells to MIC>99 for antimycobacterial activity against multi-drug resistant Mycobacterium tuberculosis Praha 1 after 14 days
Assay type: toxicity
Details: read-out: Selectivity Index
observedProperty: selectivity ratio at 336 h

structureAsSmiles	observedProperty	experimentalResult
O=[N+]([O-])c1cc(-c2nnc(SCc3ccccc3)n2Cc2ccccc2)cc(C(F)(F)F)c1	selectivity ratio at 336 h	> 100

###

Assay: Selectivity index, ratio of IC50 for human HepG2 cells to MIC>99 for antimycobacterial activity against multi-drug resistant Mycobacterium tuberculosis 9449/2007 after 14 days
Format: toxicity
Settings: read-out: Selectivity Index

structureAsSmiles	selectivity ratio at 336 h
O=[N+]([O-])c1cc(-c2nnc(SCc3ccccc3)n2Cc2ccccc2)cc(C(F)(F)F)c1	> 100

###

Experiment: Selectivity index, ratio of IC50 for human HepG2 cells to MIC>99 for antimycobacterial activity against multi-drug resistant Mycobacterium tuberculosis 234/2005 after 14 days
Format: toxicity
Settings: read-out: Selectivity Index

structureAsSmiles	selectivity ratio at 336 h
O=[N+]([O-])c1cc(-c2nnc(SCc3ccccc3)n2Cc2ccccc2)cc(C(F)(F)F)c1	> 100

###

Test: Selectivity index, ratio of IC50 for human A431 cells to MIC>99 for antimycobacterial activity against multi-drug resistant Mycobacterium tuberculosis 8666/2010 after 14 days
Type: toxicity
Settings: read-out: Selectivity Index
observedProperty: selectivity ratio at 336 h

structureAsSmiles	experimentalResult
O=[N+]([O-])c1cc(-c2nnc(SCc3ccccc3)n2Cc2ccccc2)cc(C(F)(F)F)c1	> 100

###

Tested on: Mycobacterium tuberculosis
Assay: Antimycobacterial activity against multi-drug resistant Mycobacterium tuberculosis 234/2005 after 21 days
Type: functional
Details: 234/2005, 504 h

structureAsSmiles	MIC99
Cn1c(SCc2ccccc2)nnc1-c1cc([N+](=O)[O-])cc([N+](=O)[O-])c1	0.03 µM
O=[N+]([O-])c1cc(-c2nnc(SCc3ccccc3)n2Cc2ccccc2)cc([N+](=O)[O-])c1	0.03 µM
COc1ccc(CSc2nnc(-c3cc([N+](=O)[O-])cc([N+](=O)[O-])c3)n2Cc2ccccc2)cc1	0.03 µM
O=[N+]([O-])c1cc(-c2nnc(SCc3ccc(Cl)c(Cl)c3)n2Cc2ccccc2)cc(C(F)(F)F)c1	2 µM
CCCCCCn1c(SCc2cc([N+](=O)[O-])cc([N+](=O)[O-])c2)nnc1-c1ccccc1	2 µM
O=[N+]([O-])c1cc(CSc2nnc(-c3ccc(Br)cc3)n2Cc2ccccc2)cc([N+](=O)[O-])c1	4 µM
O=[N+]([O-])c1cc(CSc2nnc(-c3ccccc3)n2Cc2ccccc2)cc([N+](=O)[O-])c1	4 µM
O=[N+]([O-])c1cc(-c2nnc(SCc3ccc(Br)cc3)n2Cc2ccccc2)cc([N+](=O)[O-])c1	0.25 µM

###

System: Mycobacterium tuberculosis
Assay: Antimycobacterial activity against multi-drug resistant Mycobacterium tuberculosis Praha 1 after 21 days
Assay type: functional
Settings: Praha 1, 504 h

structureAsSmiles	quantityUnit	MIC99
COc1ccc(Cn2c(SCc3cc([N+](=O)[O-])cc([N+](=O)[O-])c3)nnc2-c2ccccc2)cc1	µM	4
O=[N+]([O-])c1cc(-c2nnc(SCc3ccc(Cl)c(Cl)c3)n2Cc2ccccc2)cc([N+](=O)[O-])c1	µM	0.25
O=[N+]([O-])c1cc(-c2nnc(SCc3ccc(Cl)cc3)n2Cc2ccccc2)cc([N+](=O)[O-])c1	µM	0.25
O=[N+]([O-])c1cc(-c2nnc(SCc3ccccc3)n2Cc2ccccc2)cc(C(F)(F)F)c1	µM	0.06

###

Each entry below carries its recorded MIC99.
Test system: Mycobacterium tuberculosis
Test: Antimycobacterial activity against multi-drug resistant Mycobacterium tuberculosis Praha 4 after 21 days
Type: functional
Conditions: Praha 4, 504 h
observedProperty: MIC99

structureAsSmiles	experimentalResult
O=[N+]([O-])c1cc(-c2nnc(SCc3ccc(Cl)c(Cl)c3)n2Cc2ccccc2)cc(C(F)(F)F)c1	2 µM
O=[N+]([O-])c1cc(-c2nnc(SCc3ccc(Cl)cc3)n2Cc2ccccc2)cc([N+](=O)[O-])c1	0.25 µM
O=[N+]([O-])c1cc(CSc2nnc(C3CCCCC3)n2Cc2ccccc2)cc(C(F)(F)F)c1	16 µM
O=[N+]([O-])c1cc(-c2nnc(SCc3ccccc3)n2Cc2ccccc2)cc(C(F)(F)F)c1	0.06 µM
O=[N+]([O-])c1cc(-c2nnc(SCc3ccc(Cl)c(Cl)c3)n2Cc2ccccc2)cc([N+](=O)[O-])c1	0.125 µM
Cn1c(SCc2ccc(Cl)cc2)nnc1-c1cc([N+](=O)[O-])cc([N+](=O)[O-])c1	0.125 µM
CCCCCCn1c(SCc2cc([N+](=O)[O-])cc([N+](=O)[O-])c2)nnc1-c1ccccc1	4 µM
O=[N+]([O-])c1cc(-c2nnc(SCc3ccccc3)n2Cc2ccccc2)cc([N+](=O)[O-])c1	0.03 µM
Cn1c(SCc2ccccc2)nnc1-c1cc([N+](=O)[O-])cc([N+](=O)[O-])c1	0.03 µM
Cn1c(SCc2ccc(Cl)c(Cl)c2)nnc1-c1cc([N+](=O)[O-])cc([N+](=O)[O-])c1	0.06 µM
O=[N+]([O-])c1cc(-c2nnc(SCc3ccc(Br)cc3)n2Cc2ccccc2)cc([N+](=O)[O-])c1	0.25 µM
CCCSc1nnc(-c2cc([N+](=O)[O-])cc([N+](=O)[O-])c2)n1Cc1ccccc1	0.125 µM
COc1ccc(Cn2c(SCc3cc([N+](=O)[O-])cc([N+](=O)[O-])c3)nnc2-c2ccccc2)cc1	4 µM
